Ref: the supplement of paper PMC6555819

PBM binding z-score reference
system: PXR homodimer (NR concentration 270 nM); experiment: PBM binding z-score (relative to random genomic background probes); higher = stronger binding; sequences stand for … in GC…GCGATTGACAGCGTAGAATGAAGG

seq_text	PBM binding z-score
TCGAGTACGTTAGTCGGGGCATTCAGCCAACATA	-0.478
CGAACTAGGTCATCCAGGACAGTGAGTACATTGA	8.11
AGAATGAGGTTATCCGTAGATCAGGGAAGAAAGT	0.231
CAAACTGGGTCAAAGGTCAAAGTCGAGCCAACCA	2
TCAAATAGGTAAACAGGTGAAAGTCCGTAAGTTA	0.0929
CGAACTAGGTCATCCCGGACAGTGAATACATTGA	0.96
CGTCCAAGGTCAAAGCTAGGTCAGTGAAAGCATT	1.62
ATACCAAGGTGATCGTGAGGTCGTTGACACTAAC	1.34
GCATATAGGTAATACAAGGTGTAAGTCCGATTGT	-0.0468

----------
List of PBM binding z-score values.
system: THRa:RXRa (NR concentration 90 nM, RXRa partner concentration 90 nM); assay: PBM binding z-score (relative to random genomic background probes); higher = stronger binding; sequences stand for … in GC…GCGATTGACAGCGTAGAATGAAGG
measured_quantity: PBM binding z-score

seq_text	observed_measurement
CCAGACAGGTGAAAGGTAACTCAATCTGGTACGC	1.1
ATCGAAAGGTCGAGAGGTGAGTATACAGAAAGGC	2.37
TCTACTAGTTGATTAGGGCAACCGAAACAGCGGA	0.604
AGAATGCGGTTAAGATCAGGGAAACAGAATACAT	0.164
CCTAGTAGTTGACCATAAGGGCAACCGAAGCTCG	1.81
CGTCAAAGTTCAAGGTAACTTAACAGAAAGCAGC	2.71
CGAACTAGGTCAGAACAGGACACTGAAGGATGAT	4.03
CGTCCAAGGTCAGCAGGTCAGTGATAGCGACGTG	3.84
CCAGACAGGTGAGGAGGTAACTCAGCCTCGATTA	0.684
CAAACTTGGTCACAGAGGTCAAAGTCCGTGCGTA	3.98
TCTTGTAGCTCAACAGGAGGTTAAGAAAGATCGA	0.491
ATATGTAGGTTATCGGGTCATTCTGTTTGCGCAT	3.38
TCGAGTAGGTTACCAATGGGGAATTCAGCTTTCT	-0.0396
CGAACTAGGTCATTGACAGCACAGTGAATAGTAA	2.31
TCTAGTTGGTTAAAGGTCACACACTCGAAATGCG	4.02
TATCCTAGGTCATGCGGGCCAGTATAGTGTCGGC	3.43
CCTACTGAGCCACGAAAGGTCATTGATTCAGTGA	3.41
TAGCCTAGGTCATTCGGGCCAGTATAGTGTCGGC	3.16
CTCGAAAGGTTGTGCTCAGGTGAGTATACCAAAC	2.84
CGTCCAAGGTCAATGCTACGTCAGTGAAAGCATT	3.53
GTTCCAAGGTGAATAGGTCGTTGATGAGTAGGCG	2.4
AGAACGAGGGAAATGAGTTGATAGCACGGGTGGC	-0.188
CCGACAGGGGCAAGGTTACCATAACGCACAGCCA	1.37
TCGAGTAGGTTAGTCGGGGCTTTCAGCCAACATA	1.11
CCGCCTGGGGCAAAGGTTACCATACTCAGTACGA	2.05
TGGAGTAGGTTACCAATGGGGCATTCAGCTTTCT	0.403
CCTTACGGGTCAAGGCTATAGCACGGGTGGTACG	2.39
TTACCCAGGTGAAGGTCGTTGATCCCTCTGTAGA	1.91
TAGCCTAGGTCAGATCGGGCCAGTATACGCTATA	4.09
TAGCCTAGGTCATGCGCGCCAGTATAGTGTCGGC	3.17
CCTACTTGGCCATTCAGAGGTCATTGATCATATG	3.21
TAGCCTAGGTCAGATAGGGCCAGTATACGCTATA	4.03
GCGACTTGGGCAAAGCAGGTTACCATAAGGTTGG	1.39
CCTAGCAGGCCAGCGTCACTCAAGCATTTCGCTT	-0.634
TCTCGGAGGACTCGAAAGGTCAGAGCTCGACATC	2.68
ACAGACAGGTGATGAGGGTAACTCAGGCTATCAT	2.72
CAGCCTAGGTCAGGGCCAGTATAGGAGGAACGTT	2.11
CCTTACGGGTCACTGACAGGTTATATCATTTGGA	2.96
AGAATGAGGTTAAGATCAGGGATACAGAATACAT	2.78
ACTAGCAGGCCAAGGGTAACTCAAGATTAGTCCG	0.54
